Test system: breast line MDA468
Assay: In vitro cell culture growth assay (MTS), MDA468
Format: cell-based, human
Details: Homo sapiens, 72 h, MDA468 cells, three days after drug treatment
Please respond with reported IC50 for every item in the list.
Give your result in µM as a bare value.

Ask: // returns reported IC50 for input CC(C)(C)OC(=O)N1CCC(n2ncc3c(N4CCOCC4)nc(-c4ccc(NC(=O)Nc5ncccn5)cc4)nc32)CC1
Result: 6.7

Ask: // same read-out, input: CC(=O)NCc1cccc(-c2nc(N3CCOCC3)c3cnn(-c4ccccc4)c3n2)c1
Result: 21

Ask: // same read-out, input: Fc1cc(F)cc(-c2nc(N3CCOCC3)c3cnn(C4CCN(Cc5ccccc5)CC4)c3n2)c1
Result: 58

Ask: // same read-out, input: COC(=O)N1CCC(n2ncc3c(N4CCOCC4)nc(-c4ccc(NC(=O)OCCN5CCN(C)CC5)cc4)nc32)CC1
Result: 7

Ask: // same read-out, input: CN/C(=N\c1ccc(-c2nc(N3CCOCC3)c3cnn(C4CCN(C(=O)OC(C)C)CC4)c3n2)cc1)SC
Result: 3.7

Ask: // same read-out, input: CC1CN(c2nc(-c3cccc(O)c3)nc3c2cnn3-c2ccccc2)CCO1 (stereo not shown)
Result: 7.5

Ask: // same read-out, input: CCOC(=O)N1CCC(n2ncc3c(N4CCOCC4)nc(-c4ccc(NC(=O)OC)cc4)nc32)CC1
Result: 0.8
